Test system: NOMO1
methodDescription: AUC of viability dose-response curve (% viability x log10 dose units); higher = less sensitive
experimentalSetup: HPLM + 10% dialyzed FBS; 48 h
The entries below are paired with their reported AUC of viability dose-response curve.
Please respond with just the number, no unit label.

Some entries whose results are on file:
1. CCCCCN(C)CCC(O)(P(=O)([O-])O)P(=O)(O)O; 421
2. CC(c1cc2ccccc2s1)N(O)C(N)=O (configuration not stated); 474
3. CC(C)(C)[C@]1(O)C[C@@H]2OC(=O)C[C@@]23C(=O)O[C@@H]2OC(=O)[C@H](O)C213 (some centres not stated); 452
4. CC[C@H](C)C(=O)O[C@H]1C[C@@H](C)\C=C2\C=C/[C@H](C)[C@H](CC[C@@H]3C[C@@H](O)CC(=O)O3)[C@@H]12; 437
5. OC1CCC(CC1)N2\C=N/C3=C(C2=N)C(=C([N]3CC4=CC=CC=C4)C5=CC=CC=C5)C6=CC=CC=C6 (configuration not stated); 399
6. Cc1cccc(-c2n[nH]cc2-c2ccc3ncccc3n2)n1; 447
7. Cc1ccc(C(=O)Nc2ccc([S+](=O)([O-])O)c3cc([S+](=O)([O-])O)cc([S+](=O)([O-])O)c23)cc1NC(=O)c1cccc(NC(=O)Nc2cccc(C(=O)Nc3cc(C(=O)Nc4ccc([S+](=O)([O-])O)c5cc([S+](=O)([O-])O)cc([S+](=O)([O-])O)c45)ccc3C)c2)c1; 350
8. CCn1c(C(=O)N(C2CC2)C2CC2)cc2c3c(ncn3C)c(Nc3cc(C)n(C)n3)nc21; 472
9. C[C@@H]1C[C@@H]([C@H](O)CC2CC(=O)NC(=O)C2)C(=O)[C@@H](C)C1; 315
10. C[C@H](c1ccc(F)cc1CCCC(=O)O)N(c1cc(F)ccc1F)[S+](=O)([O-])c1ccc(Cl)cc1; 452

Prompt: Identify AUC of viability dose-response curve associated with the compound COc1nc(N)nc2c1ncn2[C@@H]1O[C@H](CO)[C@@H](O)[C@@H]1O
Response: 458

Prompt: Identify AUC of viability dose-response curve associated with the compound CN(C)CCc1c[nH]c2ccc(Cn3cncn3)cc12
Response: 318

Prompt: Identify AUC of viability dose-response curve associated with the compound CN1CCN(CC1)C2=CC3=C([NH]C(=N3)C/4=C(\N)C5=C(F)C=CC=C5NC4=O)C=C2
Response: 418

Prompt: Identify AUC of viability dose-response curve associated with the compound CC(C)[C@]12O[C@H]1[C@@H]3O[C@@]34[C@@]5(C)CC\C6=C(COC6=O)/[C@@H]5C[C@@H]7O[C@]47[C@@H]2O
Response: 49.2

Prompt: Identify AUC of viability dose-response curve associated with the compound COc1c(N2C[C@@H]3CCCN[C@@H]3C2)c(F)cc2c(=O)c(C(=O)O)cn(C3CC3)c12.Cl.O
Response: 390

Prompt: Identify AUC of viability dose-response curve associated with the compound c1cc2c(cc1[C@H]1OC[C@H]3[C@@H]1CO[C@@H]3c1ccc3c(c1)OCO3)OCO2
Response: 467

Prompt: Identify AUC of viability dose-response curve associated with the compound CN1CCN(c2ncc(-c3cc(Cl)cc(Cl)c3Cl)c(N)n2)CC1
Response: 337
